Experiment: Mouse PK analysis (blood/plasma concentration after oral administration)
Type: in vivo
Settings: mouse; mice, oral, plasma
Counter-ions that a name gives are not always drawn.
REPORTED PROPERTY: Cmax (nM)

*Q* # return recorded Cmax for entry C[C@@]12Cc3[nH]nc(-c4cc5ccc(N6CCC7(CCN(Cc8ccc9c(c8)C(=O)N(C8CCC(=O)NC8=O)C9=O)CC7)C6=O)cc5[nH]4)c3C[C@@H]1C2(F)F (stereo partly shown) [Compound 15, hydrochloride]
*A* 743

*Q* # return recorded Cmax for entry C[C@@]12Cc3[nH]nc(C(=O)Nc4cnn(CC5CN(C(=O)C6CN(c7ccc8c(c7)C(=O)N(C7CCC(=O)NC7=O)C8=O)C6)C5)c4)c3C[C@@H]1C2(F)F (stereo partly shown)
*A* 720

*Q* # return recorded Cmax for entry Cn1c(=O)n(C2CCC(=O)NC2=O)c2cccc(N3CCC(CN4CCC5(CC4)CCN(c4ccc6cc(-c7n[nH]c8c7C[C@@H]7C(F)(F)[C@]7(C)C8)[nH]c6c4)C5=O)CC3)c21 (stereo partly shown)
*A* 585

*Q* # return recorded Cmax for entry C[C@@]12Cc3[nH]nc(C(=O)Nc4cnn(CC5CN(C[C@H]6CCN(c7ccc8c(c7)C(=O)N(C7CCC(=O)NC7=O)C8=O)C6)C5)c4)c3C[C@@H]1C2(F)F (stereo partly shown)
*A* 27

*Q* # return recorded Cmax for entry C[C@@H](C(=O)N(C)c1ccc2cc(-c3n[nH]c4c3C[C@@H]3C(F)(F)[C@]3(C)C4)[nH]c2c1)N1CCN(CC2CCN(c3ccc(C(=O)NC4CCC(=O)NC4=O)nc3)CC2)CC1 (stereo partly shown)
*A* 526

*Q* # return recorded Cmax for entry C[C@@H](C(=O)N(C)c1ccc2cc(-c3n[nH]c4c3CCC(C)(C)C4)[nH]c2c1)N1CCN(C[C@H]2CCN(c3ccc4c(c3)CN(C3CCC(=O)NC3=O)C4=O)C2)CC1 (stereo partly shown)
*A* 80.3

*Q* # return recorded Cmax for entry C[C@@H](C(=O)N(C)c1ccc2cc(-c3n[nH]c4c3C[C@@H]3C(F)(F)[C@]3(C)C4)[nH]c2c1)N1CCN(CC2CCN(c3cccc4c3n(C)c(=O)n4C3CCC(=O)NC3=O)CC2)CC1 (stereo partly shown)
*A* 405

*Q* # return recorded Cmax for entry C[C@@H](C(=O)N(C)c1ccc2cc(-c3n[nH]c4c3CCC(C)(C)C4)[nH]c2c1)N1CCN(C[C@@H]2CCN(c3ccc4c(c3)n(C)c(=O)n4C3CCC(=O)NC3=O)C2)CC1 (stereo partly shown)
*A* 127

a = CC1(C)CCc2c(-c3cc4ccc(C(=O)N5CCC(CN6CCC7(C6)CN(c6ccc(C8CCC(=O)NC8=O)cn6)C7)CC5)cc4[nH]3)n[nH]c2C1 (stereo not shown)
b = C[C@@]12Cc3[nH]nc(C(=O)Nc4cnn([C@H](c5ccccc5)C5CN(C(=O)C6CN(c7ccc(C8CCC(=O)NC8=O)cn7)C6)C5)c4)c3C[C@@H]1C2(F)F (stereo partly shown)
*Q* Looking at recorded values for Cmax, does a or b come in lower? Provide the label of your selected option as the answer.
*A* a

* * *

Molecular target: ITK (Homo sapiens)
Sequence (Q08881 whole entry): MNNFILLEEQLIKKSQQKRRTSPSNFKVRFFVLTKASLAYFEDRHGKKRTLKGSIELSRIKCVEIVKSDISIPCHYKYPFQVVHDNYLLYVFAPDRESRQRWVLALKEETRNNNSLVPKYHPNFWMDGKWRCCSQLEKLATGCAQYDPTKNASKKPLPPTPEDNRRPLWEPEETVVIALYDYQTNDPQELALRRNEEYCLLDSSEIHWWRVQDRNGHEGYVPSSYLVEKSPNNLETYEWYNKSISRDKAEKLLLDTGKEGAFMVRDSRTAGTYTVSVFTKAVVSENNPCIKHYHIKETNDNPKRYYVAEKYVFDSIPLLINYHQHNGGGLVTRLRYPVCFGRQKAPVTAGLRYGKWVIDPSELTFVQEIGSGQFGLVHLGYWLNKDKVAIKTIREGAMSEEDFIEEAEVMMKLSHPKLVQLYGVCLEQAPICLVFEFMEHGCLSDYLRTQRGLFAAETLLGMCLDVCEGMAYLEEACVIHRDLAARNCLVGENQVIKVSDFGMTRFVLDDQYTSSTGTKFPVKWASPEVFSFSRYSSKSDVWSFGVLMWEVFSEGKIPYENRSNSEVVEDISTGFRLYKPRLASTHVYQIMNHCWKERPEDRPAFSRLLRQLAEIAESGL
Experiment: ITK degradation HiBiT assay
Format: cell-based
Parameters: expressed in transfected cells; host or cells: Molt4 (ATCC CRL-1552), monoclonal clone 1C10, engineered to carry the HiBiT tag
Details: C-terminal HiBiT-tagged Molt4 cells, 4 hrs
REPORTED PROPERTY: DC50 (nM)

Recorded results for 6 compounds are shown here.
*Q* # return recorded DC50 for entry C[C@@]12Cc3[nH]nc(-c4cc5cc(F)c(C(=O)N6CCN(CC7CCN(c8ccc(C9CCC(=O)NC9=O)cc8)CC7)CC6)cc5[nH]4)c3C[C@@H]1C2(F)F (stereo partly shown) [Compound 138]
*A* 0.076

*Q* # return recorded DC50 for entry C[C@@]12Cc3[nH]nc(-c4cc5cc(F)c(C(=O)N6CCN(CC7CCN(c8ccc([C@H]9CCC(=O)NC9=O)cc8)CC7)CC6)cc5[nH]4)c3C[C@@H]1C2(F)F (single isomer, unassigned) [Compound 220]
*A* 1.4

*Q* # return recorded DC50 for entry CC1(C)CCc2c(-c3cc4ccc(C(=O)N5CCN(CC6CCN(c7ccc(C8CCC(=O)NC8=O)cn7)CC6)C(C)(C)C5)cc4[nH]3)n[nH]c2C1 (stereo not shown) [Compound 133]
*A* 1.6

*Q* # return recorded DC50 for entry COC[C@@]1(C)CCc2c(-c3cc4ccc(C(=O)N5CCN(CC6CCN(c7ccc(C8CCC(=O)NC8=O)cc7)CC6)CC5)cc4[nH]3)n[nH]c2C1 (mixture of isomers) [Compound 224]
*A* 8.5

*Q* # return recorded DC50 for entry C[C@@H](C(=O)N(C)c1ccc2cc(-c3n[nH]c4c3C[C@@H]3C(F)(F)[C@]3(C)C4)[nH]c2c1)N1CCN(CC2CCN(c3cccc4c3n(C)c(=O)n4C3CCC(=O)NC3=O)CC2)CC1 (stereo partly shown) [Compound 65]
*A* 0.35

*Q* # return recorded DC50 for entry CN(C(=O)C1CCN(CC2CCN(c3ccc(C4CCC(=O)NC4=O)cn3)CC2)CC1)c1ccc2cc(-c3n[nH]c4c3C[C@@H]3C(F)(F)[C@]3(C)C4)[nH]c2c1 (stereo partly shown) [Compound 74]
*A* 10.5

I = C[C@@H](C(=O)N(C)c1ccc2cc(-c3n[nH]c4c3C[C@@H]3C(F)(F)[C@]3(C)C4)[nH]c2c1)N1CCN(C[C@H]2CCN(c3ccc4c(c3)C(=O)N(C3CCC(=O)NC3=O)C4=O)C2)CC1 (stereo partly shown) [Compound 9]
II = C[C@@]12Cc3[nH]nc(C(=O)Nc4cnn(CC5CCN(CC6CCN(c7ccc(C8CCC(=O)NC8=O)cn7)CC6)CC5)c4)c3C[C@@H]1C2(F)F (mixture of isomers) [Compound 120]
III = C[C@@]12Cc3[nH]nc(C(=O)Nc4ccc(C5CCN(CC6CCN(c7ccc(C8CCC(=O)NC8=O)cn7)CC6)CC5)cc4)c3C[C@@H]1C2(F)F (stereo partly shown) [Compound 109]
IV = C[C@@]12Cc3[nH]nc(C(=O)Nc4cnn(C5CCN(CC6CCN(c7ccc(N8CCC(=O)NC8=O)cc7)CC6)CC5)c4)c3C[C@@H]1C2(F)F [Compound 207]
*Q* Put the items in order so that reported DC50 rises from first to last. Kindly provide the labels arranged according to the requested ordering.
*A* II, I, IV, III
